- assay_summary: self-splicing fitness, log relative to wild type (ln ratio); higher = more splicing; Tetrahymena group I intron in knt gene, E. coli kanamycin selection, DiMSum; sequences stand for … in CUCUCU…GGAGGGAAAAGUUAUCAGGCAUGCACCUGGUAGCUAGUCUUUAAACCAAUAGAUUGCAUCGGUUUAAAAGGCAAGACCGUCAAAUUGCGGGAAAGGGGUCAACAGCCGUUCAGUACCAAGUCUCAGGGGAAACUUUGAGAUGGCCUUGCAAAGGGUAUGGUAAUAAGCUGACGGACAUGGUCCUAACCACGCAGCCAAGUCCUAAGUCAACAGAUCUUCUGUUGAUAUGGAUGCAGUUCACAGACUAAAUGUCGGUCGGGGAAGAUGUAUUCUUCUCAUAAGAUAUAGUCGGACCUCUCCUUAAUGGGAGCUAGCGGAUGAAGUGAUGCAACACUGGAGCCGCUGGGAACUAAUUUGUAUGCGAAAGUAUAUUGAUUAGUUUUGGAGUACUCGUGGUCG;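 further: selection with 25 µg/mL kanamycin versus none on LB agar overnight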
- condition_description: 30 °C
parameter: self-splicing fitness (ln)

AAAAAGCAAUAUUACGUGGU = -3.26
AUACAGCAAUAUUACGGAAC = -3.46
CUUAAGCAAUAUUACGCGAC = -1.83
GCCGAGCAAUAUUACGUAGA = -2.74
CUGGAGCAAUAUUACGACAU = -2.19
UCUCAGCAAUAUUACGACCU = -1.84
UGAGAGCAAUAUUACGAUUU = -2.34
CAAUAGCAAUAUUACGGAGG = -1.16
AUGUAGCAAUAUUACGCGGA = -2.41
UGUCAGCAAUAUUACGUUCU = -1.16
UCGUAGCAAUAUUACGAGAA = -2.57
UCCCAGCAAUAUUACGGAGG = -3.51
UGUUAGCAAUAUUACGGGGG = -3.91
UACUAGCAAUAUUACGACCU = -2.01
UUCGAGCAAUAUUACGUAUA = -2.7
UGCCAGCAAUAUUACGCACA = -0.53

* * *

- assay_summary: self-splicing fitness, log relative to wild type (ln ratio); higher = more splicing; Tetrahymena group I intron in knt gene, E. coli kanamycin selection, DiMSum; sequences stand for … in CUCUCU…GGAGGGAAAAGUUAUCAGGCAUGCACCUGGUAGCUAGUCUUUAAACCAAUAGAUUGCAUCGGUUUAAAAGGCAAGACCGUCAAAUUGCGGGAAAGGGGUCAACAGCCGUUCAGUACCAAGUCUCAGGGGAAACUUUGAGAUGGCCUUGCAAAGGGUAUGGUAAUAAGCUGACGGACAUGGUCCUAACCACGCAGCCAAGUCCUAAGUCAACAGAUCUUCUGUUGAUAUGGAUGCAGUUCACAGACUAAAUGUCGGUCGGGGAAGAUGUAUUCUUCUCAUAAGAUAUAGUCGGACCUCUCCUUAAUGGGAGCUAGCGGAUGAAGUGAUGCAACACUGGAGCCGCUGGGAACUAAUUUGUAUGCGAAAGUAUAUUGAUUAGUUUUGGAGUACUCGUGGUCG
- condition_description: 37 °C
// self-splicing fitness (ln) lookup, one value per entry
parameter: self-splicing fitness (ln)

CAAAAGCAAUAUUACGACGC = -1.14
CGCCAGCAAUAUUACGUGGA = -2
UCGAAGCAAUAUUACGCCUA = -1.71
GAUUAGCAAUAUUACGGACA = 0.179
UCUUAGCAAUAUUACGAUAG = -1.63
UAACAGCAAUAUUACGAUCC = -2.04
AUGAAGCAAUAUUACGAUGG = -1.92
CCAUAGCAAUAUUACGGUAG = -0.787
